Where these numbers come from: patent US20160242416A1

tested on: Erysiphe graminis f sp. tritici; experiment: Test G: wheat powdery mildew, preventive spray on wheat seedlings; conditions: 10 ppm; wheat powdery mildew; 100 = 100% disease control, 0 = no control
parameter: Test G rating (% disease control) (%)
Numbers only, in %.

>>> numeric_result("CCC(C)(C)C(O)(Cn1cncn1)C1=NOC(COc2ccc(Cl)cc2)C1 (single isomer, unassigned) [Compound 193]")
97
>>> numeric_result("CC(C)(C)C(O)(Cn1cncn1)C1=NOC(COc2ccc(OC(F)(F)F)cc2)C1 (single isomer, unassigned) [Compound 25]")
100
>>> numeric_result("CC(C)(C)C(O)(Cn1cncn1)C1=NOC(COc2ccc(Br)cc2)C1 (single isomer, unassigned) [Compound 183]")
100
>>> numeric_result("CC(C)(C)CC(O)(Cn1cncn1)C1=NOC(COc2ccc(Br)cc2)C1 (single isomer, unassigned) [Compound 171]")
94
>>> numeric_result("Cn1nc(C(F)(F)F)cc1OCC1CC(C(O)(Cn2cncn2)C(C)(C)C)=NO1 (single isomer, unassigned) [Compound 56]")
94

Hi team, please reply with Test G rating (% disease control) for each item in this list.
1. OC(Cn1cncn1)(C1=NOC(c2ccc(Cl)cc2)C1)C12CC3CC(CC(C3)C1)C2 (single isomer, unassigned) [Compound 40]
2. OC(Cc1ccc(Cl)cc1)(Cn1cncn1)C1=NOC(c2ccc(Cl)cc2)C1 (single isomer, unassigned) [Compound 94]
3. CC(C)(C)CC(O)(Cn1cncn1)C1=NOC(c2ccc(Cl)cc2)C1 (single isomer, unassigned) [Compound 138]
4. CC(C)(C)C(O)(Cn1cncn1)C1=NOC(Cc2ccc(Cl)c(Cl)c2)C1 (single isomer, unassigned) [Compound 23]
5. CCCC(O)(Cn1cncn1)C1=NOC(c2ccc(Cl)cc2)C1 (single isomer, unassigned) [Compound 83]
6. OC(Cn1cncn1)(C1=NOC(Cn2ccc(-c3ccc(C(F)(F)F)cc3)n2)C1)c1ccc(Cl)cc1 (single isomer, unassigned) [Compound 67]
7. OC(Cn1cncn1)(C1=NOC(COc2ccc(F)cc2)C1)c1ccc(Cl)cc1 (single isomer, unassigned) [Compound 162]

Output:
1. 48
2. 99
3. 100
4. 100
5. 99
6. 99
7. 100

Hi team, please reply with Test G rating (% disease control) for each item in this list.
1. OC(Cn1cncn1)(C1=NOC(c2ccc(Cl)cc2)C1)c1ccc(Oc2ccccc2)cc1 (mixture of isomers)
2. OC(Cn1cncn1)(C1=NOC(COc2ccc(C(F)(F)F)cc2)C1)c1ccc(Cl)cc1 (single isomer, unassigned) [Compound 63]
3. OC(Cn1cncn1)(C1=NOC(COc2ccc(Cl)cc2)C1)c1ccc(Cl)cc1 (single isomer, unassigned) [Compound 62]
4. OC(Cn1cncn1)(C1=NOC(COc2ccc(C(F)(F)F)cc2)C1)c1ccc(Cl)cc1 (single isomer, unassigned) [Compound 64]
5. CC(C)(C)C(O)(Cn1cncn1)C1=NOC(COc2ccc(I)cc2)C1 (single isomer, unassigned) [Compound 184]
6. CC(C)(C)C(O)(Cn1cncn1)C1=NOC(CCOc2ccc(Cl)cc2)C1 (single isomer, unassigned) [Compound 208]
7. OC(Cn1cncn1)(C1=NOC(COc2ccc3c(c2)OCO3)C1)c1ccc(Cl)cc1 (single isomer, unassigned) [Compound 43]

Output:
87
100
96
94
100
100
98

Input: State the recorded Test G rating (% disease control) for this entry: OC(Cn1cncn1)(C1=NOC(Cn2ccc(C(F)(F)F)n2)C1)c1ccc(Cl)cc1 (single isomer, unassigned) [Compound 194]
Output: 99
